Exercise: for every item that follows, state its recorded GI50.
System: NCI-H23 lung
Assay: NCI tumour cell line growth inhibition, 48 h

Asked: Look at this molecule and give its reported GI50. COc1ccc(C2CC(c3cccc(OC)c3)=NN2C(=O)c2cc(OC)c(OC)c(OC)c2)cc1 (centres undefined)
Given back: 2.76 µM

Asked: Need GI50, item OCC#CCCCCOCC#Cc1ccccc1C#CCOCCCCC#CCO
Given back: 23 µM

Asked: Which GI50 is reported for this molecule? O=C(Nc1nc(-c2ccccc2)cs1)c1cc(O)c(O)c(O)c1
Given back: 4.36 µM

Asked: Bench note: what GI50 did CNC12C3C4C1C1C2C3C41C(=O)N[C@H](C(=O)N(C)[C@H](C[C@@H](OC(C)=O)c1nc(C(=O)N[C@@H](Cc2ccccc2)C[C@H](C)C(=O)OC)cs1)C(C)C)C1CC1 (some centres undefined) show?
Given back: 0.511 µM

----------
Test system: A549 NSCLC
Test: NCI tumour cell line growth inhibition, 48 h
Metric Name: GI50

Asked: Give GI50 (A549 NSCLC) of the following molecule: O=c1oc2c(cc1-c1ccccc1)C(O)Oc1ccccc1-2 (stereo not drawn)
Given back: 7.84 µM

Asked: What value of GI50 on A549 NSCLC does COc1ccc2c(c1)C(=O)c1c-2n(CCCN=[N+]=[N-])c(=O)c2cc(N)ccc12 have?
Given back: > 100 µM

Asked: Param readout = GI50; param system = A549 NSCLC; param query = c1ccc2c(-c3cnn4cc(-c5ccc(N6CCNCC6)cc5)cnc34)ccnc2c1 ; response: value
Given back: 0.766 µM

Asked: Fill in the recorded GI50 for this molecule, with A549 NSCLC as test system: CC(=O)N1N=C(c2ccc(Nc3nc(Nc4ccc(F)cc4)nc(Nc4ccc(Cl)cc4)n3)cc2)CC1c1ccc(N(C)C)cc1 (stereo not drawn)
Given back: 4.27 µM

Asked: Request body: readout GI50, system A549 NSCLC, query C=C1C(=O)O[C@H]2[C@H]1CC/C(COC(=O)C(=O)c1c[nH]c3ccc(Cl)cc13)=C\CC[C@@]1(C)O[C@@H]21 . Return the value.
Given back: 2.52 µM

Asked: Kindly state the measured GI50 obtained for COc1ccc(C2CC(c3cccc(OC)c3)=NN2C(=O)c2cc(OC)c(OC)c(OC)c2)cc1 (stereo not drawn) with A549 NSCLC.
Given back: 2.25 µM

Asked: // fetch A549 NSCLC GI50 for Cc1ccc(N(/C=C/C(=O)C(F)(F)F)CC(=O)c2ccc(Cl)c(Cl)c2)cc1
Given back: 9.37 µM

Asked: Query the reported GI50 for A549 NSCLC; item: CCCC(=O)O[C@]1(C)CC[C@@H]2[C@H]3[C@@H]1[C@@H]1C/C(C)=C\CC[C@](C)(OC(=O)[C@@H]2C)[C@H]3O1
Given back: 40.1 µM

----------
Test system: BT-549 breast
Experiment: NCI tumour cell line growth inhibition, 48 h
Cut-off 30 µM on TGI, inclusive. At or above means yes; below means no.

Asked: Item COc1ccc2oc(=O)c(-c3csc(-c4ccccc4)n3)cc2c1 with TGI of 30 µM or above?
Given back: yes

Asked: Test whether the compound COC(=O)/C(C#N)=C(/NCc1ccccc1)Nc1ccccc1 records TGI of 30 µM or higher.
Given back: yes

Asked: Is TGI at least 30 µM? Consider O=C(c1ccccc1)c1ccc(O)c2ncccc12
Given back: yes

Asked: Assess whether reported TGI for CCC1(CC)C(=O)NN(C(=O)c2ccc(Cl)cc2)C1=O sits at 30 µM or higher.
Given back: yes

Asked: Exam item: decide whether the reported TGI for Cc1cc(S(=O)(=O)Nc2nc3ccccc3[nH]2)c(SCc2ccccc2)cc1Cl is at least 30 µM.
Given back: yes

Asked: Tell me whether TGI is at least 30 µM here: COC(=O)C1Cc2c([nH]c3ccccc23)-c2[nH]c3ccccc3c2CC(NC(C)=O)C(=O)NCC(=O)NCC(=O)N1 (stereo unspecified)
Given back: yes

Asked: Could you verify whether the entry CC(C)(C)CN1[C@@H]2CCCC[C@H]2N(CC(C)(C)C)P1(=O)C(O)/C=C/c1ccccc1 (stereo partly specified) shows TGI of no less than 30 µM?
Given back: yes

Asked: Confirm if TGI reported for the compound COC1=CC(=O)c2c(n[nH]c2CCNC(=O)OCc2ccccc2)C1=O is 30 µM or above.
Given back: yes

Asked: Threshold query (TGI >= 30 µM) on COc1cc2oc(-c3cccc(C(=O)Nc4ccc(C)cc4)c3)cc(=O)c2c(OC)c1OC
Given back: yes

Asked: Say whether Nc1ncc(N)c(NCC2(CO)CC(CCc3ccccc3)C2)n1 (stereo unspecified) shows TGI of 30 µM or more.
Given back: no

Asked: For this compound, is measured TGI 30 µM or higher? CN(C)c1cccc(/C=C(\C#N)c2ccccc2)c1
Given back: yes

Asked: Determine whether measured TGI meets or exceeds 30 µM for C[n+]1cc2cc3c(cc2c2ccccc21)OCO3
Given back: no

Asked: Is TGI at least 30 µM? Consider Cc1c(-c2ccccc2)c(C#N)c2nnn(C)c(=O)n12
Given back: yes

Asked: // inclusive: TGI at least 30 µM? input: COc1cc(/C=C2\C(=O)N(c3ccc(NC(C)=O)cc3)C(c3ccccc3)S2(=O)=O)cc(OC)c1OC (stereo unspecified)
Given back: yes

Asked: Is it the case that Cc1cccc(/C=C2/C(=O)Nc3ccccc32)n1 has TGI reaching or exceeding 30 µM?
Given back: yes

Asked: Quick check, TGI >= 30 µM? COC1C(O)CC(OC2CC(OC3CC(O[C@@H]4C(=O)c5c(cc6cc(OC7CC(OC8CC(O)C(O)C(C)O8)C(O)C(C)O7)c(C)c(O)c6c5O)C[C@H]4[C@H](OC)C(=O)[C@@H](O)[C@@H](C)O)OC(C)C3O)OC(C)C2O)OC1C (stereo partly specified)
Given back: no

Asked: Threshold query (TGI >= 30 µM) on Cc1ccc(S(=O)(=O)NNC(C[N+](=O)[O-])c2ccccc2)cc1 (stereo unspecified)
Given back: yes

Asked: hey, is TGI for this one >= 30 µM? O=C(O)c1cc2cc(O)ccc2[nH]1
Given back: yes
